Assay Remarks: Bioavailability and prodrug conversion in male rats
Assay type: in vivo
Conditions Used: Crl:CD(SD)BR, rat, blood, fasted, oral 10 mg free base of active moiety per kg, IV 1 mg free base/kg, LC-MS/MS, read-out: BA (bioavailability of prodrug after oral adminstration)
Description: Healthy male rats [Crl:CD(SD)BR] were obtained from Charles River Breeding Laboratory (Canada). […] The animals weighed 250 to 320 g and were individually identified by labeling on each metabolism cage. […] Blood samples were collected from the jugular vein at specified time intervals. Concentrations of test article and/or prodrug were analyzed using a LC-MS/MS procedure. […] The percentages of conversion of prodrug to active moiety was calculated using the following equation: [formula] […]
Property: bioavailability (%)

I = CC(C)Nc1ncc(-c2cc(N)cc(C(F)(F)F)c2)n(CC(=O)NCc2ccc(C3=NC(C)(C)ON3)cc2)c1=O
II = COC(=O)c1cc(N)cc(-c2cnc(NC(C)C)c(=O)n2CC(=O)NCc2ccc(C(=N)NO)cc2)c1
III = CC(C)Nc1ncc(-c2cc(N)cc(C(F)(F)F)c2)n(CC(=O)NCc2ccc3c(N)nc(=O)oc3c2)c1=O
Rank the 3 compounds: largest bioavailability first, smallest last. Enter labels, ranked according to the request.
I, II, III

A = CCNC(=O)O/N=C(\N)c1ccc(CNC(=O)Cn2c(-c3cc(N)cc(C(F)(F)F)c3)cnc(NC(C)C)c2=O)cc1
B = CC(C)Nc1ncc(-c2cc(N)cc(C(F)(F)F)c2)n(CC(=O)NCCc2c(F)c(F)c3c(N)noc3c2F)c1=O
Hey, which is lower on measured bioavailability, A or B ? Use the label to indicate which entry you chose.
A
(A: 1%, B: 4%)

I = CC(C)Nc1ncc(-c2cc(N)cc(C(F)(F)F)c2)n(CC(=O)NCc2ccc3c(N)noc3c2)c1=O
II = CC(C)Nc1ncc(-c2cc(N)cc(C(F)(F)F)c2)n(CC(=O)NCc2ccc(/C(N)=N/OC(=O)OC(C)C)cc2)c1=O
III = CCONC(=N)c1ccc(CNC(=O)Cn2c(-c3cc(N)cc(C(F)(F)F)c3)cnc(NC(C)C)c2=O)cc1
Endpoint returns the given compounds ordered by ascending bioavailability. Enter labels, ranked according to the request.
II, I, III

* * *

Assay Remarks: Metabolic stability assay, hepatic S9 fraction incubation (rat)
Assay type: in vitro ADME
Conditions Used: rat liver S9 fraction 2.0 mg/mL protein, 1.0 μM substrate, 1.0 mM NADPH, 37° C., 30 minutes
Property: S9 Rat (percent remaining) (%)

Some molecules with recorded S9 Rat (percent remaining):
> print(dat)
                                    molecule                    property  observed
 1  CC(C)Nc1ncc(-c2cc(N)cc(C(F)(F)F)c2)n(CC(=O)NCCc2c(F)c(F)c3c(N)noc3c2F)c1=O  S9 Rat (percent remaining)        25
 2  CCOC(=O)O/N=C(\N)c1ccc(CNC(=O)Cn2c(-c3cc(N)cc(C(F)(F)F)c3)cnc(NC(C)C)c2=O)cc1  S9 Rat (percent remaining)        54
 3  CC(C)Nc1ncc(-c2cc(N)cc(NC(=O)C(C)C)c2)n(CC(=O)NCc2ccc(C(=N)NO)cc2)c1=O  S9 Rat (percent remaining)        36
 4  CCONC(=N)c1ccc(CNC(=O)Cn2c(-c3cc(N)cc(C(F)(F)F)c3)cnc(NC(C)C)c2=O)cc1  S9 Rat (percent remaining)         3
 5  CC(C)Nc1ncc(-c2cc(N)cc(C(F)(F)F)c2)n(CC(=O)NCc2ccc(C(=N)NOCc3ccccc3)cc2)c1=O  S9 Rat (percent remaining)        14
 6  CCNC(=O)O/N=C(\N)c1ccc(CNC(=O)Cn2c(-c3cc(N)cc(C(F)(F)F)c3)cnc(NC(C)C)c2=O)cc1  S9 Rat (percent remaining)         1
 7  CCCCOC(=O)O/N=C(\N)c1ccc(CNC(=O)Cn2c(-c3cc(N)cc(C(F)(F)F)c3)cnc(NC(C)C)c2=O)cc1  S9 Rat (percent remaining)        44
 8  CC(C)Nc1ncc(-c2cc(N)cc(C(F)(F)F)c2)n(CC(=O)NCc2ccc(C3=NC(C)(C)ON3)cc2)c1=O  S9 Rat (percent remaining)        13
 9  COc1ccc(OC(=O)O/N=C(\N)c2ccc(CNC(=O)Cn3c(-c4cc(N)cc(C(F)(F)F)c4)cnc(NC(C)C)c3=O)cc2)cc1  S9 Rat (percent remaining)         1
10  CC(C)Nc1ncc(-c2cc(N)cc(C(F)(F)F)c2)n(CC(=O)NCc2ccc3c(N)nc(=O)oc3c2)c1=O  S9 Rat (percent remaining)         0

1 = CC(C)Nc1ncc(-c2cc(N)cc(C(F)(F)F)c2)n(CC(=O)NCc2ccc(C(=N)NO)cc2)c1=O
2 = CONC(=N)c1ccc(CNC(=O)Cn2c(-c3cc(N)cc(C(F)(F)F)c3)cnc(NC(C)C)c2=O)cc1
Hey, which is lower on measured S9 Rat (percent remaining), 1 or 2 ? Use the label to indicate which entry you chose.
2

I = CC(C)Nc1ncc(-c2cc(N)cc(C(F)(F)F)c2)n(CC(=O)NCc2ccc(C3=NOC(C)(c4ccccc4)N3)cc2)c1=O (centres unmarked)
II = CC(C)COC(=O)O/N=C(\N)c1ccc(CNC(=O)Cn2c(-c3cc(N)cc(C(F)(F)F)c3)cnc(NC(C)C)c2=O)cc1
Hey, which is lower on measured S9 Rat (percent remaining), I or II ? Use the label to indicate which entry you chose.
II

* * *

Assay Remarks: Metabolic stability assay, hepatic S9 fraction incubation (human)
Format: in vitro ADME
Conditions Used: human liver S9 fraction 2.0 mg/mL protein, 1.0 μM substrate, 1.0 mM NADPH, 37° C., 30 minutes
Property: S9 Hum. (percent remaining) (%)

Some compounds with recorded S9 Hum. (percent remaining):
> print(dat)
                                   compound                     property  observed
1  CC(C)Nc1ncc(-c2cc(N)cc(C(F)(F)F)c2)n(CC(=O)NCc2ccc(C(=N)NOCc3ccccc3)cc2)c1=O  S9 Hum. (percent remaining)        17
2  CC(C)Nc1ncc(-c2cc(N)cc(NC(=O)C(C)C)c2)n(CC(=O)NCc2ccc(C(=N)NO)cc2)c1=O  S9 Hum. (percent remaining)         5
3  CC(C)Nc1ncc(-c2cc(N)cc(C(F)(F)F)c2)n(CC(=O)NCc2ccc3c(N)nc(=O)oc3c2)c1=O  S9 Hum. (percent remaining)         0
4  CC(C)Nc1ncc(-c2cc(N)cc(C(F)(F)F)c2)n(CC(=O)NCc2ccc(C(=N)NO)cc2)c1=O  S9 Hum. (percent remaining)         2

P = CCONC(=N)c1ccc(CNC(=O)Cn2c(-c3cc(N)cc(C(F)(F)F)c3)cnc(NC(C)C)c2=O)cc1
Q = CCOC(=O)O/N=C(\N)c1ccc(CNC(=O)Cn2c(-c3cc(N)cc(C(F)(F)F)c3)cnc(NC(C)C)c2=O)cc1
R = CONC(=N)c1ccc(CNC(=O)Cn2c(-c3cc(N)cc(C(F)(F)F)c3)cnc(NC(C)C)c2=O)cc1
S = CC(C)Nc1ncc(-c2cc(N)cc(C(F)(F)F)c2)n(CC(=O)NCc2ccc(C3=NOC(C)(c4ccccc4)N3)cc2)c1=O (centres unmarked)
T = CCCCOC(=O)O/N=C(\N)c1ccc(CNC(=O)Cn2c(-c3cc(N)cc(C(F)(F)F)c3)cnc(NC(C)C)c2=O)cc1
Endpoint returns the given compounds ordered by ascending S9 Hum. (percent remaining). Enter labels, ranked according to the request.
R, P, S, Q, T

P = COc1ccc(OC(=O)O/N=C(\N)c2ccc(CNC(=O)Cn3c(-c4cc(N)cc(C(F)(F)F)c4)cnc(NC(C)C)c3=O)cc2)cc1
Q = CC(C)COC(=O)O/N=C(\N)c1ccc(CNC(=O)Cn2c(-c3cc(N)cc(C(F)(F)F)c3)cnc(NC(C)C)c2=O)cc1
R = CC(C)Nc1ncc(-c2cc(N)cc(C(F)(F)F)c2)n(CC(=O)NCc2ccc(C3=NC(C)(C)ON3)cc2)c1=O
S = CC(C)Nc1ncc(-c2cc(N)cc(C(F)(F)F)c2)n(CC(=O)NCCc2c(F)c(F)c3c(N)noc3c2F)c1=O
# rank_down: sort by S9 Hum. (percent remaining), max first Enter labels, ranked according to the request.
S, P, R, Q
(S: 39%, P: 1%, R: 0.50%, Q: 0%)
